- System: N-type Ca2+ channels in IMR-32 cells (Homo sapiens, UniProt Q00975)
- Construct: host or cells: IMR-32 cells, differentiated with dibutyryl cAMP and bromodeoxyuridine
- Sequence (Q00975 whole entry): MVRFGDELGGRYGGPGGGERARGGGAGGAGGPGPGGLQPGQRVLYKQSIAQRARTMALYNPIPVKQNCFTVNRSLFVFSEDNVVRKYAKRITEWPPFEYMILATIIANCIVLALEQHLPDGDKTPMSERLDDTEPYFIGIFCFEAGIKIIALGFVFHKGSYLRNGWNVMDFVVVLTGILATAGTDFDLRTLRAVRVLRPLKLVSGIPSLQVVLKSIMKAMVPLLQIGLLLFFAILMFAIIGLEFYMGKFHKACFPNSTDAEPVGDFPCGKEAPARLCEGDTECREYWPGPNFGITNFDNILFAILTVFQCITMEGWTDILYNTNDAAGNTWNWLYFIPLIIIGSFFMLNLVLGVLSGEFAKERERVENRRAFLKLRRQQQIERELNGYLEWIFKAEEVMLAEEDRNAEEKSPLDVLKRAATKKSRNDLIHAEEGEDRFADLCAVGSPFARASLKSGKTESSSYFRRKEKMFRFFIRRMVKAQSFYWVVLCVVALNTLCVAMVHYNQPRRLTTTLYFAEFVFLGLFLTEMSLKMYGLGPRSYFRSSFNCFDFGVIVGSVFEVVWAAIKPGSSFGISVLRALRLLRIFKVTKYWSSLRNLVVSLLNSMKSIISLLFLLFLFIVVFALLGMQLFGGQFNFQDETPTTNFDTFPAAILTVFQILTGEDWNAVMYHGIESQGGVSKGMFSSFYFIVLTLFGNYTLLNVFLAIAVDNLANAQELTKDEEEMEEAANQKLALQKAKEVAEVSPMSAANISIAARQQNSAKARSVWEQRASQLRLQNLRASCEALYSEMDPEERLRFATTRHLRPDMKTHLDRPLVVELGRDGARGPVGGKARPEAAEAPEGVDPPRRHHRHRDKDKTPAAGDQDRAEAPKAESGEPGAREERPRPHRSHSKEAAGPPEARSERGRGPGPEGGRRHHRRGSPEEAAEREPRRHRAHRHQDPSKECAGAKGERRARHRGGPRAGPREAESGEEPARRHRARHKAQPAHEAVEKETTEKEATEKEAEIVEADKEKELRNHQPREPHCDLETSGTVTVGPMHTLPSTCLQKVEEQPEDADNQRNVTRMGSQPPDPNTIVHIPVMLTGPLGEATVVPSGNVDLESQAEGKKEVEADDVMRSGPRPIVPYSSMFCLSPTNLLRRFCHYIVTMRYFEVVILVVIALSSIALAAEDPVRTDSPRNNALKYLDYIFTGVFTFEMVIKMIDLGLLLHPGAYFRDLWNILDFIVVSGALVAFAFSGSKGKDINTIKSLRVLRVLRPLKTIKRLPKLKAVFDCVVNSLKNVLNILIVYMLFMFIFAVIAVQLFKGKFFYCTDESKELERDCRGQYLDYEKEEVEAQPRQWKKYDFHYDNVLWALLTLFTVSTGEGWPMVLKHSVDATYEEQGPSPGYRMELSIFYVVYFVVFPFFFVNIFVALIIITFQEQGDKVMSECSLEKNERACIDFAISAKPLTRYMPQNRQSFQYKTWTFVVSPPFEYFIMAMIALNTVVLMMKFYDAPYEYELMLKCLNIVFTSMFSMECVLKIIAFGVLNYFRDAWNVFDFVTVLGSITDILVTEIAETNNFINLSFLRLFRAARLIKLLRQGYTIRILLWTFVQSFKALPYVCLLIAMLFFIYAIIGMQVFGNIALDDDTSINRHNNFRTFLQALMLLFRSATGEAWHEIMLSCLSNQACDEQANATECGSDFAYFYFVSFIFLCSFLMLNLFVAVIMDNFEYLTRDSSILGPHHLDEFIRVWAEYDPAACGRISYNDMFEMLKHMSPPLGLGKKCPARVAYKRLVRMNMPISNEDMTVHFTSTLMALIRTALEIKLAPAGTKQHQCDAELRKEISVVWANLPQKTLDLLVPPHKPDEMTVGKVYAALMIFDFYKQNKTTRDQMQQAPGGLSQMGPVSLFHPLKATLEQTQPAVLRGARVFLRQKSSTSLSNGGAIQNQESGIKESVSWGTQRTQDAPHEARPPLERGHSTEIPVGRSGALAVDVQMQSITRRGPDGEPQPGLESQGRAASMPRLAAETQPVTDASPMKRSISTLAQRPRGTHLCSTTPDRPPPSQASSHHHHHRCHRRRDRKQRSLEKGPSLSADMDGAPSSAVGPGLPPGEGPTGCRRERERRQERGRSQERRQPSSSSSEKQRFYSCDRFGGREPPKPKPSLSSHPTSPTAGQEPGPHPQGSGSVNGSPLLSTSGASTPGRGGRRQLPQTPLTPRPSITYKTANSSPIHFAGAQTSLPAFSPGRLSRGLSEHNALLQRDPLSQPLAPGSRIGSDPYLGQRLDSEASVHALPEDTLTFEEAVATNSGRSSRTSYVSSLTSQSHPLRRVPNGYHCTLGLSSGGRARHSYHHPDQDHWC
- Sequence (P54289 25-956 partner limits assumed): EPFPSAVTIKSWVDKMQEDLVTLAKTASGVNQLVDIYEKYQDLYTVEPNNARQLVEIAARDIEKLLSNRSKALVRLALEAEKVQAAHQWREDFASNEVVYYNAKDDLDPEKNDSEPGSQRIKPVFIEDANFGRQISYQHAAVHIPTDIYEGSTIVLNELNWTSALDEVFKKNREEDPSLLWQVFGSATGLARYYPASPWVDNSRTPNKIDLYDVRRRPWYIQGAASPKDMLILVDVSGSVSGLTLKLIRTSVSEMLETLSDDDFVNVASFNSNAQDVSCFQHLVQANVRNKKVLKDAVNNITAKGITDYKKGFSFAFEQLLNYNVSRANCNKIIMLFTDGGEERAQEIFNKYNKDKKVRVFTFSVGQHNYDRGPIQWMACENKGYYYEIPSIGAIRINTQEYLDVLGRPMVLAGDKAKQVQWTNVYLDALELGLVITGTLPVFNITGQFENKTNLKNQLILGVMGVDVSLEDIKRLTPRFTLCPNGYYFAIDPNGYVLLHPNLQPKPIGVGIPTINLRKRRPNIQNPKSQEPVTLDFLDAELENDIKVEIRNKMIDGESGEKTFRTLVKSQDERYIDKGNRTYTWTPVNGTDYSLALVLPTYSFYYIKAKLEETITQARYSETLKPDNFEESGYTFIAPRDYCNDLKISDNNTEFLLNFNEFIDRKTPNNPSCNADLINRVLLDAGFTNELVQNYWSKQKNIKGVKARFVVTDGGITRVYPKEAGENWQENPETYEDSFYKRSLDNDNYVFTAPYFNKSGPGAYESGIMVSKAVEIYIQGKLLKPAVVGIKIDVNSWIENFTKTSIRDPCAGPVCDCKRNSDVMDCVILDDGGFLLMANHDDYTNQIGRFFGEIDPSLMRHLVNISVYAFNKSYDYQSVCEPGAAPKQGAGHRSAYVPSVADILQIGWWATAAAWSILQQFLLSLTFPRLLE
- Sequence (P54289 957-1103 partner limits assumed): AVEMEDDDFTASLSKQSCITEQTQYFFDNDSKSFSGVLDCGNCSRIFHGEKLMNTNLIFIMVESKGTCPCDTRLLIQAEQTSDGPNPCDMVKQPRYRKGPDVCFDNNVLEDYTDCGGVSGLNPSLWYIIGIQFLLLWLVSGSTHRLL
- Sequence (P54284 whole entry partner): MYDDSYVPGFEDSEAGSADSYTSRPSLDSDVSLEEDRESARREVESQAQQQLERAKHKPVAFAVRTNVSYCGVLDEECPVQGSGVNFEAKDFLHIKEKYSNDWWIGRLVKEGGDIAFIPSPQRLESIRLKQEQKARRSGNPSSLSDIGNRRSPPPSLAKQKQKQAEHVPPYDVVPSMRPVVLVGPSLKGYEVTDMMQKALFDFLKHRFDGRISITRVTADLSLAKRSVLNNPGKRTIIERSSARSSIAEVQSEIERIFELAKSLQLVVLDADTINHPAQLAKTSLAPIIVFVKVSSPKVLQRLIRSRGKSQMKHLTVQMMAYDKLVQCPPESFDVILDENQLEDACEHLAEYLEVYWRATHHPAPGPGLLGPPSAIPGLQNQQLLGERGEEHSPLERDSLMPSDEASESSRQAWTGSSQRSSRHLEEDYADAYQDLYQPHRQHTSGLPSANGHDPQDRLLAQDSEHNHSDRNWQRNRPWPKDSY
- Experiment notes: Inhibition of N-type calcium flux in IMR-32 cells (Indo-1 fluorescence, nitrendipine present)
- Type: cell-based
- Run parameters: 10 μM
Readout label: Inhibition of Calcium Flux in IMR-32 Cells % Inhibition at 10 μM (%)
Report only the number, with the unit % understood.

| Molecule | Numeric readout |
| --- | --- |
| CC(C)C[C@H](NS(=O)(=O)c1cccc2nsnc12)C(=O)C[C@H](Cc1ccc(OCc2ccccc2)cc1)C(=O)OC(C)(C)C (relative stereo) | 75 |
| CC(C)C[C@H](NC(=O)CCc1c[nH]c2ccccc12)C(=O)N[C@@H](Cc1ccc(OCc2ccccc2)cc1)C(=O)OC(C)(C)C (relative stereo) | 65 |
| CCCC(=O)N[C@@H](CC(C)C)C(=O)N[C@@H](Cc1ccc(OCc2ccccc2)cc1)C(=O)OC(C)(C)C (relative stereo) | 80 |
| CC(C)C[C@H](NC(=O)N1CCCCCC1)C(=O)N[C@@H](Cc1ccc(OCc2ccccc2)cc1)C(=O)NCCc1ccc(O)cc1 (relative stereo) | 94 |
| COc1cc(C(=O)NC(CC(C)C)C(=O)N[C@@H](Cc2ccc(OCc3ccccc3)cc2)C(=O)OC(C)(C)C)cc(OC)c1OC (stereo in doubt) | 65 |
| CCC(CO)NC(=O)[C@H](Cc1ccc(OCc2ccccc2)cc1)NC(=O)[C@H](CC(C)C)NC(=O)N1CCCCCC1 (relative stereo) | 84 |

Give N-type Ca2+ channels in IMR-32 cells (Homo sapiens, UniProt Q00975) Inhibition of Calcium Flux in IMR-32 Cells % Inhibition at 10 μM for CC(=O)Nc1ccc(NC(=O)[C@H](Cc2ccc(OCc3ccccc3)cc2)NC(=O)[C@H](CC(C)C)NC(=O)N2CCCCCC2)cc1 (relative stereo)
37

Give N-type Ca2+ channels in IMR-32 cells (Homo sapiens, UniProt Q00975) Inhibition of Calcium Flux in IMR-32 Cells % Inhibition at 10 μM for CC(C)C[C@H](NC(=O)C(F)(F)F)C(=O)N[C@@H](Cc1ccc(OCc2ccccc2)cc1)C(=O)OC(C)(C)C (relative stereo)
78

Give N-type Ca2+ channels in IMR-32 cells (Homo sapiens, UniProt Q00975) Inhibition of Calcium Flux in IMR-32 Cells % Inhibition at 10 μM for CC(C)C[C@H](NC(=O)N1CCCCCC1)C(=O)N[C@@H](Cc1ccc(OCc2ccccc2)cc1)C(=O)NCc1ccc2c(c1)OCO2 (relative stereo)
84

Give N-type Ca2+ channels in IMR-32 cells (Homo sapiens, UniProt Q00975) Inhibition of Calcium Flux in IMR-32 Cells % Inhibition at 10 μM for CC(C)C[C@H](NC(=O)Cc1cccnc1)C(=O)N[C@@H](Cc1ccc(OCc2ccccc2)cc1)C(=O)OC(C)(C)C (relative stereo)
65

Give N-type Ca2+ channels in IMR-32 cells (Homo sapiens, UniProt Q00975) Inhibition of Calcium Flux in IMR-32 Cells % Inhibition at 10 μM for CC(C)C[C@H](NC(=O)N1CCCCCC1)C(=O)N[C@@H](Cc1ccc(OCc2ccccc2)cc1)C(=O)NCc1ccco1 (relative stereo)
88

====

- System: N-type Ca2+ channels in IMR-32 cells (Homo sapiens)
- Construct: host or cells: IMR-32 cells, differentiated with dibutyryl cAMP and bromodeoxyuridine
- Experiment notes: Inhibition of N-type calcium flux in IMR-32 cells (Indo-1 fluorescence, nitrendipine present)
- Format: cell-based
- Run parameters: 10 μM
Readout label: Inhibition of Calcium Flux in IMR-32 Cells % Inhibition at 10 μM (%)
Report only the number, with the unit % understood.

Below: 2 compounds and their reported Inhibition of Calcium Flux in IMR-32 Cells % Inhibition at 10 μM.
| Compound | Numeric readout |
| --- | --- |
| CC(C)C[C@H](NC(=O)c1ccccc1)C(=O)N[C@@H](Cc1ccc(OCc2ccccc2)cc1)C(=O)OC(C)(C)C (relative stereo) | 78 |
| CC(C)C[C@H](NC(=O)N1CCCCCC1)C(=O)N[C@@H](Cc1ccc(OCc2ccccc2)cc1)C(=O)Nc1ccc(N2CCCCC2)cc1 (relative stereo) | 33 |

Proceed to the following item.
Consider the compound shown here: CC(C)C[C@H](NC(=O)N1CCCCCC1)C(=O)N[C@@H](Cc1ccc(N(Cc2ccccc2)Cc2ccccc2)cc1)C(=O)NC(C)(C)C (relative stereo) What is its recorded Inhibition of Calcium Flux in IMR-32 Cells % Inhibition at 10 μM?
72

====

- System: N-type Ca2+ channels in IMR-32 cells (Homo sapiens)
- Construct: host or cells: IMR-32 cells, differentiated with dibutyryl cAMP and bromodeoxyuridine
- Experiment notes: Inhibition of N-type calcium flux in IMR-32 cells (Indo-1 fluorescence, nitrendipine present)
- Assay type: cell-based
- Run parameters: 1 μM
- Description: Measurement of N-type Ca^2+ Channel Blocking Potencies of Compounds in IMR-32 Cells Using the Fluorescent Ca^2+ Indicator Indo-1 IMR-32 cells are a human tumoral cell line of neural origin. […] Calcium flux into these cells may be induced by stimulation with elevated potassium concentrations. The L-channel component of calcium flux may be blocked by adding 5 μM nitrendipine. […] Intracellular calcium concentrations are measured using the fluorescent calcium indicator Indo 1. […]
Inhibition of Calcium Flux in IMR-32 Cells % Inhibition at 1 μM values for the compounds below.

| Compound | Result |
| --- | --- |
| CC(C)C[C@H](NC(=O)N1CCCCCC1)C(=O)N[C@@H](Cc1ccc(OCc2ccccc2)cc1)C(=O)NCc1ccco1 (relative stereo) | 40% |

Consider the compound shown here: CNC(=O)N[C@@H](CC(C)C)C(=O)N[C@@H](Cc1ccc(OCc2ccccc2)cc1)C(=O)OC(C)(C)C (relative stereo) What is its recorded Inhibition of Calcium Flux in IMR-32 Cells % Inhibition at 1 μM?
30%

Consider the compound shown here: COc1cc(NC(=O)[C@H](Cc2ccc(OCc3ccccc3)cc2)NC(=O)[C@H](CC(C)C)NC(=O)N2CCCCCC2)cc(OC)c1OC (relative stereo) What is its recorded Inhibition of Calcium Flux in IMR-32 Cells % Inhibition at 1 μM?
36%

Consider the compound shown here: CC(C)C[C@H](NC(=O)N1CCCCCC1)C(=O)N[C@@H](Cc1ccc(OCc2ccccc2)cc1)C(=O)N1CCN(Cc2ccccc2)CC1 (relative stereo) What is its recorded Inhibition of Calcium Flux in IMR-32 Cells % Inhibition at 1 μM?
55%

Consider the compound shown here: Cc1ccccc1NC(=O)N[C@@H](CC(C)C)C(=O)N[C@@H](Cc1ccc(OCc2ccccc2)cc1)C(=O)OC(C)(C)C (relative stereo) What is its recorded Inhibition of Calcium Flux in IMR-32 Cells % Inhibition at 1 μM?
34%

Consider the compound shown here: CC(C)C[C@H](NC(=O)Nc1ccc(Oc2ccccc2)cc1)C(=O)N[C@@H](Cc1ccc(OCc2ccccc2)cc1)C(=O)OC(C)(C)C (relative stereo) What is its recorded Inhibition of Calcium Flux in IMR-32 Cells % Inhibition at 1 μM?
28%

Consider the compound shown here: CC(C)C[C@H](NC(=O)N1CCCCCC1)C(=O)N[C@@H](Cc1ccc(OCc2ccccc2)cc1)C(=O)N1CCN(CCOCCO)CC1 (relative stereo) What is its recorded Inhibition of Calcium Flux in IMR-32 Cells % Inhibition at 1 μM?
24%

Consider the compound shown here: CC(C)C[C@H](NS(=O)(=O)c1ccc(F)cc1)C(=O)N[C@@H](Cc1ccc(OCc2ccccc2)cc1)C(=O)OC(C)(C)C (relative stereo) What is its recorded Inhibition of Calcium Flux in IMR-32 Cells % Inhibition at 1 μM?
35%

Consider the compound shown here: CC(C)C[C@H](NC(=S)NC12CC3CC(CC(C3)C1)C2)C(=O)N[C@@H](Cc1ccc(OCc2ccccc2)cc1)C(=O)OC(C)(C)C (relative stereo) What is its recorded Inhibition of Calcium Flux in IMR-32 Cells % Inhibition at 1 μM?
29%

Consider the compound shown here: CC(C)C[C@H](NC(=O)NC(C)C)C(=O)N[C@@H](Cc1ccc(OCc2ccccc2)cc1)C(=O)OC(C)(C)C (relative stereo) What is its recorded Inhibition of Calcium Flux in IMR-32 Cells % Inhibition at 1 μM?
37%

Consider the compound shown here: CC(C)C[C@H](NC(=O)Nc1ccc(Cl)cc1)C(=O)N[C@@H](Cc1ccc(OCc2ccccc2)cc1)C(=O)OC(C)(C)C (relative stereo) What is its recorded Inhibition of Calcium Flux in IMR-32 Cells % Inhibition at 1 μM?
40%

====

- System: N-type Ca2+ channels in IMR-32 cells (Homo sapiens, UniProt Q00975)
- Construct: host or cells: IMR-32 cells, differentiated with dibutyryl cAMP and bromodeoxyuridine
- Experiment notes: Inhibition of N-type calcium flux in IMR-32 cells (Indo-1 fluorescence, nitrendipine present)
- Assay type: cell-based
- Run parameters: 10 μM
Inhibition of Calcium Flux in IMR-32 Cells % Inhibition at 10 μM values for the molecules below.
Report only the number, with the unit % understood.

Below: 5 molecules and their reported Inhibition of Calcium Flux in IMR-32 Cells % Inhibition at 10 μM.
| Molecule | System | Numeric readout |
| --- | --- | --- |
| COc1cc(NC(=O)N[C@@H](CC(C)C)C(=O)N[C@@H](Cc2ccc(OCc3ccccc3)cc2)C(=O)OC(C)(C)C)cc(OC)c1OC (relative stereo) | N-type Ca2+ channels in IMR-32 cells (Homo sapiens, UniProt Q00975) | 19 |
| CC(C)C[C@H](NC(=O)C(C)C)C(=O)N[C@@H](Cc1ccc(OCc2ccccc2)cc1)C(=O)OC(C)(C)C (relative stereo) | N-type Ca2+ channels in IMR-32 cells (Homo sapiens, UniProt Q00975) | 71 |
| CC(C)C[C@H](NC(=O)N1CCOCC1)C(=O)N[C@@H](Cc1ccc(OCc2ccccc2)cc1)C(=O)OC(C)(C)C (relative stereo) | N-type Ca2+ channels in IMR-32 cells (Homo sapiens, UniProt Q00975) | 78 |
| CC(C)C[C@H](NC(=O)C(F)(F)C(F)(F)F)C(=O)C[C@H](Cc1ccc(OCc2ccccc2)cc1)C(=O)OC(C)(C)C (relative stereo) | N-type Ca2+ channels in IMR-32 cells (Homo sapiens, UniProt Q00975) | 61 |
| CCCCCCC(=O)N[C@@H](CC(C)C)C(=O)N[C@@H](Cc1ccc(OCc2ccccc2)cc1)C(=O)OC(C)(C)C (relative stereo) | N-type Ca2+ channels in IMR-32 cells (Homo sapiens, UniProt Q00975) | 66 |

Proceed to the following item.
Give N-type Ca2+ channels in IMR-32 cells (Homo sapiens, UniProt Q00975) Inhibition of Calcium Flux in IMR-32 Cells % Inhibition at 10 μM for Cc1nn(C)c(Cl)c1S(=O)(=O)N[C@@H](CC(C)C)C(=O)N[C@@H](Cc1ccc(OCc2ccccc2)cc1)C(=O)OC(C)(C)C (relative stereo)
76
